# METHOD NOTES: Metabolic stability in human hepatic microsomes at 1 uM after 30 mins at 37 degC
# Assay type: ADME
# TEST SETTINGS: liver microsomes, read-out: Stability
Here the recorded remaining at 0.5 h, 1 µM is given for each entry.
Give the value, in units of %, as a plain number.

Just so you know, measured remaining at 0.5 h, 1 µM for CN1CCN(c2ccc(C(=O)/C=C/c3cccc(/C=C/C(=O)NO)c3)cc2)CC1 came out at 40

Reported remaining at 0.5 h, 1 µM ( CN1CCN(c2cccc(C(=O)/C=C/c3ccc(/C=C/C(=O)NO)nc3)c2)CC1 ) = 41

For reference, reported remaining at 0.5 h, 1 µM for CN1CCN(Cc2cccc(C(=O)/C=C/c3cccc(/C=C/C(=O)NO)c3)c2)CC1 stands at 39
